system: SN12C renal; assay: NCI tumour cell line growth inhibition, 48 h
Where a SMILES comes first, the peptide text is derived from it. The star is where a group is joined. Cbz = O=C(OCc1ccccc1)*
Below, each entry is listed with its recorded TGI.

COc1cc(-c2csc(NC(=O)Nc3ccc(Cl)cc3)n2)cc(OC)c1OC | 13.7 µM
O=C(O)c1ccccc1NS(=O)(=O)c1ccc(Cl)cc1 | > 100 µM
C[N+](C)(N)Cc1nc(-c2ccc(Cl)cc2)no1 | > 100 µM
COc1cc2c(c3nc4ccccc4nc13)-c1ccc(SC)c(=O)cc1[C@@H](NC(C)=O)CC2 | > 100 µM
Cc1ccccc1NC(=O)C(=O)C(C1OC(=O)c2ccccc21)[N+](=O)[O-] (stereo unspecified) | > 100 µM
c1ccc2[nH]c(-c3ccc(Nc4nc(N5CCCC5)nc5[nH]ncc45)cc3)nc2c1 | 4.15 µM
CCOC(=O)CCC(NC(=O)C(CC(=O)OC)NC(=O)OCc1ccccc1)C(=O)NC(CC(=O)OC)C(=O)NC(CCC(=O)OCC)C(=O)NC(CC(=O)OC)C(=O)NC(CCC(=O)OCC)C(=O)NC(CC(=O)OCC)C(=O)OCC (stereo unspecified) (Cbz-D(OMe)E(OEt)D(OMe)E(OEt)D(OMe)E(OEt)D(OEt)-OEt; configuration not given here) | > 100 µM
Cc1c2ccccc2c(/C=N/NC(=O)CSCC(=O)N/N=C/c2c3ccccc3c(C)c3ccccc23)c2ccccc12 | > 100 µM
C/C(=C\CCC1=CC(=O)OC1)CCC1C2C(=O)CC(C)[C@@]3(C)CC[C@]1(C)[C@@]23C (stereo partly specified) | > 10 µM
Cc1cc(C)c2c(c1)CSCc1cc(C)cc(C)c1-2 | > 100 µM

In plain terms, CC(=O)N1N=C(c2ccccc2)NC(=O)C1c1cc(C)c(O)c(C)c1 (stereo unspecified) has a documented TGI of 79.1 µM

In plain terms, CSC(=Nc1ccccc1)c1c(C)[nH]n(-c2ccccc2)c1=O has a documented TGI of > 100 µM

In plain terms, CN(c1ccccc1)c1nc(=[N+](C)C)ss1 has a documented TGI of > 100 µM

In plain terms, COc1cc(/C=C2\CC3C4CC=C5C[C@@H](O)CC[C@]5(C)C4CC[C@]3(C)\C2=N\O)cc(OC)c1OC (stereo partly specified) has a documented TGI of 54.1 µM

In plain terms, O=S(=O)(c1ccccc1)N1CCC1c1ccccc1 (stereo unspecified) has a documented TGI of > 100 µM

In plain terms, COC1CCC(O)C(CO)O1 (stereo unspecified) has a documented TGI of > 100 µM

In plain terms, CC1OC1C(=O)P(=O)(O)O (stereo unspecified) has a documented TGI of > 100 µM

In plain terms, CCCCCCCCCCCCCOCCOCCOCCCCC(O)CCCCCCCCCC1=C[C@H](C)OC1=O (stereo partly specified) has a documented TGI of 71.4 µM

In plain terms, CCCCCCCCCCCC(c1ccccc1)[N+](C)(C)C (stereo unspecified) has a documented TGI of 3.77 µM

====

test system: TK-10 renal; assay: NCI tumour cell line growth inhibition, 48 h
Below, each entry is listed with its recorded TGI.

Here is how some molecules turned out for TGI.
N#CSc1c[nH]c2ccc(/C=C/C(=O)/C=C(O)/C=C/c3ccc4[nH]cc(SC#N)c4c3)cc12 | 23.8 µM
Cc1cc2c(cc1Cl)SC(=Nc1ccc(Cl)cc1)N(S(=O)(=O)c1ccc(Br)s1)S2(=O)=O | 49.6 µM
CC(C)CC(NC(=O)C(O)C(N)Cc1ccccc1)C(=O)O (stereo unspecified) | > 100 µM

In plain terms, CN(C(=O)Cc1cc(Cl)c(Cl)cc1NC(=O)CCCN)[C@H]1CCCC[C@@H]1N1CCCC1 has a documented TGI of > 100 µM

In plain terms, C=C1C(=O)O[C@@H]2C[C@@]3(C)CCC[C@H](C)C3=C[C@H]12 (tested in a mixture with another compound) has a documented TGI of 6.92 µM
